Biological target: Aurora-A kinase (Homo sapiens)
Construct: purchased Invitrogen (Carlsbad, CA, USA)
Sequence (O14965 whole entry): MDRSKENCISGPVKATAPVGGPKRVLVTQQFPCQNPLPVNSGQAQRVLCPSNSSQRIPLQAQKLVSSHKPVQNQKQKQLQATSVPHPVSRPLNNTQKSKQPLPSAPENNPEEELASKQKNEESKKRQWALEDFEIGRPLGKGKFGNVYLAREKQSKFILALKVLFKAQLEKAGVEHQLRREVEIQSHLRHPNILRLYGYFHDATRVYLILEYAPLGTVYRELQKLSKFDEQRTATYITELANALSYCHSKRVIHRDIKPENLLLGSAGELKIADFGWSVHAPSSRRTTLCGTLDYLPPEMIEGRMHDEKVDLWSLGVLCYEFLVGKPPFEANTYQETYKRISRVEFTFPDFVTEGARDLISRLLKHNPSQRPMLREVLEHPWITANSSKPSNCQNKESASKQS
Assay: FRET-based Z'-LYTE kinase enzyme inhibition assay
Assay type: biochemical
Conditions: 10 µM, duplicates, Z'-LYTE
observation_type: % Inhibition at 10 µM

// known answers, use as guide
molecule: COc1ccc(CC(C)NCC(O)c2ccc(O)c(O)c2)cc1 (stereo not shown)
% Inhibition at 10 µM: 30%
//
molecule: C[n+]1c(/C=C/c2ccc([N+](=O)[O-])cc2)oc2ccccc21
% Inhibition at 10 µM: 1%
//
molecule: CCC(=Cc1ccc(OC)cc1)C(=O)c1ccc(OC)cc1
% Inhibition at 10 µM: -2%

Please look at the items below and tell me % Inhibition at 10 µM for each one, in order.
1. COc1ccc(N=Nc2ccc(OC)cc2)cc1
2. COc1ccc(CCC(N)c2ccc(OC)cc2)cc1 (stereo not shown)
3. CCNC(Cc1ccc(OC)cc1)c1ccc(OC)cc1 (stereo not shown)
4. O=[N+]([O-])c1ccc(COc2ccc(Cl)cc2)cc1
5. COc1ccc(C(=O)Oc2ccc(C=O)cc2OC)cc1
6. COc1ccc(CNCCNCc2ccc(OC)cc2)cc1

Result block:
["8%", "-1%", "-2%", "-3%", "-142%", "7%"]

The value of % Inhibition at 10 µM measured for the molecule `COc1ccc(C=Cc2ccc(Cl)cc2)cc1` turned out to be -5%

* * *

Test system: T-47D cells
Experiment: MTT cytotoxicity/anti-proliferation assay, T-47D
Format: cell-based
Settings: Homo sapiens, T47D, 25 µM, 72 h
observation_type: inhibition at 25 µM (%)
Answers are plain numbers, in %.

compound: COc1ccc(C(=O)C2=NON3O[C@@]23C(=O)c2ccc(OC)cc2)cc1 (stereo partly drawn) [Hit 85]
uom: %
result_value: 84.6

Please look at the items below and tell me inhibition at 25 µM for each one, in order.
1. Cc1cc(Nc2cc(N3CCN(C)CC3)nc(Sc3ccc(NC(=O)C4CC4)cc3)n2)[nH]n1 [Tozasertib/(VX-680), Tozasertib, reference compound]
2. CCCC1N(Cc2ccc(OC)cc2)CCN1Cc1ccc(OC)cc1 [Hit 130]
3. Cc1cc(O)c(/N=N/c2ccc(C(=O)O)cc2)cc1C [Hit 88]
4. O=C(O)c1ccc(Nc2ccnc3cc(Cl)ccc23)cc1O [Hit 141]
5. COc1cc(/C=N/c2ccc3ccccc3c2)ccc1O [Hit 112]

Result block:
[53.4, 25.5, 26.5, 21.1, 34.7]

* * *

Molecular target: Aurora-A kinase (Homo sapiens)
Construct: purchased Invitrogen (Carlsbad, CA, USA)
Assay: FRET-based Z'-LYTE kinase enzyme inhibition assay
Format: biochemical
Conditions: 10 µM, duplicates, Z'-LYTE
observation_type: % Inhibition at 10 µM (%)
Answers are plain numbers, in %.

compound: CCOc1ccc(NC(=O)Nc2ccc(OCC)cc2)cc1
% Inhibition at 10 µM [%]: -1

compound: COc1ccc([C@@H](O)Cc2ccc(Cl)cc2)cc1
% Inhibition at 10 µM [%]: -7

compound: CCOC(=O)C(=Cc1cc(C)c(OC(C)=O)c(OC)c1)NC(=O)c1ccccc1
% Inhibition at 10 µM [%]: -4

compound: COc1cccc(/C=C/C(=O)/C=C/C=C/c2ccccc2)c1
% Inhibition at 10 µM [%]: 0

compound: COc1ccc(C(=O)C=Cc2ccc3c(c2)OCO3)cc1
% Inhibition at 10 µM [%]: 8

compound: COc1ccc(NC(=O)c2ccc(Cl)cc2)cc1
% Inhibition at 10 µM [%]: -1

compound: O=[N+]([O-])c1cccc(S(=O)(=O)Nc2ccc(Cl)cc2)c1
% Inhibition at 10 µM [%]: 7

compound: Oc1ccc(/C=C/c2ccc(Cl)cc2)cc1
% Inhibition at 10 µM [%]: -7

compound: COc1ccc(C(=O)OCc2ccc3c(c2)OCO3)cc1 [Hit 90]
% Inhibition at 10 µM [%]: -2

compound: COc1ccc(C=NNS(=O)(=O)c2ccc(NC(C)=O)cc2)cc1
% Inhibition at 10 µM [%]: 2

Please look at the items below and tell me % Inhibition at 10 µM for each one, in order.
1. COc1ccc(/N=N/c2ccc(O)cc2)cc1
2. COc1ccc(C=Cc2ccc3ccccc3n2)cc1
3. COc1ccc(C(=O)CCCCC(=O)c2ccc(OC)cc2)cc1

Result block:
1: 7; 2: -2; 3: 4

Please look at the items below and tell me % Inhibition at 10 µM for each one, in order.
1. NC[C@@H](O)c1ccc(Nc2ccnc3cc(Cl)ccc23)cc1
2. O=C(CCCc1ccc([N+](=O)[O-])cc1)c1ccccc1
3. COc1ccc(N=[N+]([O-])c2ccc(OC)cc2)cc1
4. CC[C@@H](C(=O)c1ccc(OC)cc1)c1ccc(OC)cc1

Result block:
[23, -6, -3, -3]

Reference source for all entries: paper PMC7766225
